species on record: Rattus norvegicus; assay: DrugMatrix - Regimen: Daily Repeat; assay type: toxicity, organism-based, Sprague-Dawley; set-up: regimen Daily Repeat, gender Male, age 6-8 weeks; conditions: in vivo, ip, 2 mg/kg, […], tissue Blood, route intraperitoneal, dose level High, time 28 day, vehicle 100 % SALINE
measureName: ABSOLUTE MONOCYTE (cells/µL)
Enter your answer as a number in cells/µL; do not include the unit.

Looking up CADMIUM DICHLORIDE , I found its ABSOLUTE MONOCYTE recorded as 620

----------
ABSOLUTE MONOCYTE by entry:
organism: Rattus norvegicus; experiment: DrugMatrix - Regimen: Daily Repeat; assay type: toxicity, organism-based, Sprague-Dawley; parameters: regimen Daily Repeat, gender Male, age 6-8 weeks; conditions: in vivo, po, 0 mg/kg, 72 h, tissue Blood, route oral GAVAGE, dose level Control, time 3 day, […]
Enter your answer as a number in CELLS/uL; do not include the unit.

# compound, measureName, unitsLabel, reportedMeasurement
measured = [
    ("COCCOC(=O)C1=C(C)NC(C)=C(C(=O)OC(C)C)C1c1cccc([N+](=O)[O-])c1 (stereo unspecified) [NIMODIPINE]", "ABSOLUTE MONOCYTE", "CELLS/uL", 102),
    ("S=C=Nc1cccc2ccccc12 [1-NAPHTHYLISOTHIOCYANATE]", "ABSOLUTE MONOCYTE", "CELLS/uL", 195.5),
    ("CCCCCCCCc1ccc(O)cc1 [4-OCTYLPHENOL]", "ABSOLUTE MONOCYTE", "CELLS/uL", 172.17),
]

Looking up C[C@H]1O[C@@H](O[C@H]2[C@@H](O)C[C@H](O[C@H]3[C@@H](O)C[C@H](O[C@H]4CC[C@@]5(C)[C@H](CC[C@@H]6[C@@H]5CC[C@]5(C)[C@@H](C7=CC(=O)OC7)CC[C@]65O)C4)O[C@@H]3C)O[C@@H]2C)C[C@H](O)[C@@H]1O [DIGITOXIN] , I found its ABSOLUTE MONOCYTE recorded as 50

Looking up COc1ccc2[nH]c([S+]([O-])Cc3ncc(C)c(OC)c3C)nc2c1 (stereo unspecified) [OMEPRAZOLE] , I found its ABSOLUTE MONOCYTE recorded as 214.17

Looking up CCOC(=O)C1=C(C)NC(C)=C(C(=O)OC)C1c1cccc([N+](=O)[O-])c1 (stereo unspecified) [NITRENDIPINE] , I found its ABSOLUTE MONOCYTE recorded as 102

Looking up CC(C)(Oc1ccc(C2CCCc3ccccc32)cc1)C(=O)O (stereo unspecified) [NAFENOPIN] , I found its ABSOLUTE MONOCYTE recorded as 251.67

Looking up O=C(O)Cc1ccccc1Nc1c(Cl)cccc1Cl [DICLOFENAC] , I found its ABSOLUTE MONOCYTE recorded as 127

Looking up CCOC(=O)C(C)(C)Oc1ccc(Cl)cc1 [CLOFIBRATE] , I found its ABSOLUTE MONOCYTE recorded as 122.17

Looking up CC(C)Cc1ccc(C(C)C(=O)O)cc1 (stereo unspecified) [IBUPROFEN] , I found its ABSOLUTE MONOCYTE recorded as 354.33
